A collection of compounds and their measured growth at 1 µM
# System: RPMI-8226
# Assay Procedure: Cytotoxicity against human RPMI8226 cells assessed as cell growth at 1 uM after 48 hrs by sulforhodamine B assay relative to control
# Assay type: functional
# Condition Context: RPMI-8226, 48 h, read-out: Activity
Put your answer as a value accompanied by its unit after it.

Query: What value of growth at 1 µM has been reported for the following compound? COc1ccc(-c2cc(/C=C/C(=O)c3ccc(OC)c(OC)c3)[nH]n2)cc1
Response: 8%

Query: Please give the result for COc1ccc(-c2cc(/C=C/C(=O)c3ccc(N)cc3)[nH]n2)cc1OC too.
Response: 59%

Query: // same read-out, input: COc1cc2c(cc1OC)C(=O)/C(=C/c1cc(-c3ccc4c(c3)OCO4)n[nH]1)C2
Response: -24%

Query: Try COc1cc(-c2cc(/C=C/C(=O)c3ccc4c(c3)OCO4)[nH]n2)cc(OC)c1OC next.
Response: 36%
